Target: T1, soluble human insulin receptor-immunoglobulin heavy chain chimera (sIR-Fc) (human, UniProt P06213 28-956, limits assumed)
T1 construct: extracellular domain; also called sIR-Ec; not shown: immunoglobulin heavy chain constant domains
Experiment: fluorescence polarization competition with FITC-RP9 for sIR-Fc
measurement-kind: IC50
# answer = value followed by unit

Solved entries (count: 3):
> print(dat)
                             binder  measurement.kind  value.reported
1         PPWGARFYDAIEQLVFDNL [RP4]              IC50           17 nM
2         VMDARDDPFYHKLSELVT [RP16]              IC50         6400 nM
3  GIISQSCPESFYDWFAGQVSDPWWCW [G33]              IC50          139 nM

Read the next record carefully.
Input: Field request: IC50 | item: GSLDESFYDWFERQLG (also called RP9 minus terminal lysines) [RP9]
Output: 24 nM

FYI, the data here is from patent US20030236190A1.
